Test system: hTERT-HMEC
EXPERIMENT_DESCRIPTION: percentage of EdU-negative (G0-arrested) nuclei per well, 72 h; higher = more G0 arrest;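 note: secreted proteins added to cultured cells, EdU pulse at the end, nuclei found by Hoechst imaging, EdU status from nuclear versus surrounding ring intensity ratio, PBS as neutral control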
TEST_CONDITIONS: protein concentration 0.225 µM; reference: sequence is the full UniProt precursor, the tested protein was the secreted form or ectodomain
Reported percentage of EdU-negative values follow for various sequences
Field format: number, assumed %, no unit text.

A selection of reference data follows.
{"columns": ["RESIDUE_STRING", "TEST_TARGET", "percentage of EdU-negative / %"],
 "data": [
  ["MLRLYVLVMGVSAFTLQPAAHTGAARSCRFRGRHYKREFRLEGEPVALRCPQVPYWLWASVSPRINLTWHKNDSARTVPGEEETRMWAQDGALWLLPALQEDSGTYVCTTRNASYCDKMSIELRVFENTDAFLPFISYPQILTLSTSGVLVCPDLSEFTRDKTDVKIQWYKDSLLLDKDNEKFLSVRGTTHLLVHDVALEDAGYYRCVLTFAHEGQQYNITRSIELRIKKKKEETIPVIISPLKTISASLGSRLTIPCKVFLGTGTPLTTMLWWTANDTHIESAYPGGRVTEGPRQEYSENNENYIEVPLIFDPVTREDLHMDFKCVVHNTLSFQTLRTTVKEASSTFSWGIVLAPLSLAFLVLGGIWMHRRCKHRTGKADGLTVLWPHHQDFQSYPK", "hTERT-HMEC", 9.76],
  ["MFHVSFRYIFGLPPLILVLLPVASSDCDIEGKDGKQYESVLMVSIDQLLDSMKEIGSNCLNNEFNFFKRHICDANKEGMFLFRAARKLRQFLKMNSTGDFDLHLLKVSEGTTILLNCTGQVKGRKPAALGEAQPTKSLEENKSLKEQKKLNDLCFLKRLLQEIKTCWNKILMGTKEH", "hTERT-HMEC", 6.63]
]}

--- query ---
May I ask what percentage of EdU-negative has been recorded for MEKILILLLVALSVAYAAPGPRGIIINLENGELCMNSAQCKSNCCQHSSALGLARCTSMASENSECSVKTLYGIYYKCPCERGLTCEGDKTIVGSITNTNFGICHDAGRSKQ ?
6.85

* * *

System: MCF7
EXPERIMENT_DESCRIPTION: percentage of EdU-negative (G0-arrested) nuclei per well, 72 h; higher = more G0 arrest
TEST_CONDITIONS: protein concentration 0.03125 µM; reference: sequence is the full UniProt precursor, the tested protein was the secreted form or ectodomain
Quick reference for percentage of EdU-negative among some sequences
Numbers only here, please. The scale is %.

Some solved cases for reference:
{"columns": ["RESIDUE_STRING", "percentage of EdU-negative (%)"],
 "data": [
  ["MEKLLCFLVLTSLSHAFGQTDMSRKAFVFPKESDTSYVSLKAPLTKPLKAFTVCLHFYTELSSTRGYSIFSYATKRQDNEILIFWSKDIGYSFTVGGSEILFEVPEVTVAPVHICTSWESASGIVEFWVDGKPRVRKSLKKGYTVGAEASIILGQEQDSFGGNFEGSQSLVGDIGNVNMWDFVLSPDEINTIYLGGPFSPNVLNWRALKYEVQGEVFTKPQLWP", 24.1],
  ["MSLSFLLLLFFSHLILSAWAHGEKRLAPKGQPGPAATDRNPRGSSSRQSSSSAMSSSSASSSPAASLGSQGSGLEQSSFQWSPSGRRTGSLYCRVGIGFHLQIYPDGKVNGSHEANMLSVLEIFAVSQGIVGIRGVFSNKFLAMSKKGKLHASAKFTDDCKFRERFQENSYNTYASAIHRTEKTGREWYVALNKRGKAKRGCSPRVKPQHISTHFLPRFKQSEQPELSFTVTVPEKKKPPSPIKPKIPLSAPRKNTNSVKYRLKFRFG", 27.9],
  ["MALLPVLFLVTVLLPSLPAEGKDPAFTALLTTQLQVQREIVNKHNELRKAVSPPASNMLKMEWSREVTTNAQRWANKCTLQHSDPEDRKTSTRCGENLYMSSDPTSWSSAIQSWYDEILDFVYGVGPKSPNAVVGHYTQLVWYSTYQVGCGIAYCPNQDSLKYYYVCQYCPAGNNMNRKNTPYQQGTPCAGCPDDCDKGLCTNSCQYQDLLSNCDSLKNTAGCEHELLKEKCKATCLCENKIY", 26.4],
  ["MALEKSLVRLLLLVLILLVLGWVQPSLGKESRAKKFQRQHMDSDSSPSSSSTYCNQMMRRRNMTQGRCKPVNTFVHEPLVDVQNVCFQEKVTCKNGQGNCYKSNSSMHITDCRLTNGSRYPNCAYRTSPKERHIIVACEGSPYVPVHFDASVEDST", 25.8],
  ["MARSNLPLALGLALVAFCLLALPRDARARPQERMVGELRDLSPDDPQVQKAAQAAVASYNMGSNSIYYFRDTHIIKAQSQLVAGIKYFLTMEMGSTDCRKTRVTGDHVDLTTCPLAAGAQQEKLRCDFEVLVVPWQNSSQLLKHNCVQM", 26.7]
]}

Consider the sequence MLAPGSSPGQRGRLALQWRQVSWITCWIALYAVEALPTCPFSCKCDSRSLEVDCSGLGLTTVPPDVPAATRTLLLLNNKLSALPSWAFANLSSLQRLDLSNNFLDRLPRSIFGDLTNLTELQLRNNSIRTLDRDLLRHSPLLRHLDLSINGLAQLPPGLFDGLLALRSLSLRSNRLQNLDRLTFEPLANLQLLQVGDNPWECDCNLREFKHWMEWFSYRGGRLDQLACTLPKELRGKDMRMVPMEMFNYCSQLEDENSSAGLDIPGPPCTKASPEPAKPKPGAEPEPEPSTACPQKQRHRPASVRRAMGTVIIAGVVCGVVCIMMVVAAAYGCIYASLMAKYHRELKKRQPLMGDPEGEHEDQKQISSVA [Q8N967] and give its measured percentage of EdU-negative.
25.5

MALGVPISVYLLFNAMTALTEEAAVTVTPPITAQQGNWTVNKTEADNIEGPIALKFSHLCLEDHNSYCINGACAFHHELEKAICRCFTGYTGERCEHLTLTSYAVDSYEKYIAIGIGVGLLLSGFLVIFYCYIRKRCLKLKSPYNVCSGERRPL , same question.
26.2

* * *

Tested on: hTERT-HMEC
EXPERIMENT_DESCRIPTION: percentage of EdU-negative (G0-arrested) nuclei per well, 72 h; higher = more G0 arrest
TEST_CONDITIONS: protein concentration 0.03125 µM; reference: sequence is the full UniProt precursor, the tested protein was the secreted form or ectodomain
OBSERVABLE: percentage of EdU-negative (%)
Number only, in %; omit the unit.

Sample MGLLLPLALCILVLCCGAMSPPQLALNPSALLSRGCNDSDVLAVAGFALRDINKDRKDGYVLRLNRVNDAQEYRRGGLGSLFYLTLDVLETDCHVLRKKAWQDCGMRIFFESVYGQCKAIFYMNNPSRVLYLAAYNCTLRPVSKKKIYMTCPDCPSSIPTDSSNHQVLEAATESLAKYNNENTSKQYSLFKVTRASSQWVVGPSYFVEYLIKESPCTKSQASSCSLQSSDSVPVGLCKGSLTRTHWEKFVSVTCDFFESQAPATGSENSAVNQKPTNLPKVEESQQKNTPPTDSPSKAGPRGSVQYLPDLDDKNSQEKGPQEAFPVHLDLTTNPQGETLDISFLFLEPMEEKLVVLPFPKEKARTAECPGPAQNASPLVLPP [Q9UGM5] — what was its percentage of EdU-negative?
5.24

* * *

Tested on: hTERT-HMEC
EXPERIMENT_DESCRIPTION: percentage of EdU-negative (G0-arrested) nuclei per well, 72 h; higher = more G0 arrest
TEST_CONDITIONS: protein concentration 0.0225 µM; reference: sequence is the full UniProt precursor, the tested protein was the secreted form or ectodomain
Classification field: enter met for percentage of EdU-negative values not below 5%, not met for values below it.

Here's what some known entries look like.
{"columns": ["RESIDUE_STRING", "CLASS_ASSIGNMENT"],
 "data": [
  ["MRLLCGLWLWLSLLKVLQAQTPTPLPLPPPMQSFQGNQFQGEWFVLGLAGNSFRPEHRALLNAFTATFELSDDGRFEVWNAMTRGQHCDTWSYVLIPAAQPGQFTVDHGVEPGADREETRVVDSDYTQFALMLSRRHTSRLAVLRISLLGRSWLLPPGTLDQFICLGRAQGLSDDNIVFPDVTGWSPQASVC [Q6JVE5]", "not met"],
  ["MLPAAMKGLGLALLAVLLCSAPAHGLWCQDCTLTTNSSHCTPKQCQPSDTVCASVRITDPSSSRKDHSVNKMCASSCDFVKRHFFSDYLMGFINSGILKVDVDCCEKDLCNGAAGAGHSPWALAGGLLLSLGPALLWAGP", "not met"]
]}

Record MMCPLWRLLIFLGLLALPLAPHKQPWPGLAQAHRDNKSTLARIIAQGLIKHNAESRIQNIHFGDRLNASAQVAPGLVGWLISGRKHQQQQESSINITNIQLDCGGIQISFHKEWFSANISLEFDLELRPSFDNNIVKMCAHMSIVVEFWLEKDEFGRRDLVIGKCDAEPSSVHVAILTEAIPPKMNQFLYNLKENLQKVLPHMVESQVCPLIGEILGQLDVKLLKSLIEQEAAHEPTHHETSQPSACQAGESPS [Q9BQP9] ; criterion: percentage of EdU-negative no lower than 5%. Met?
not met

Also check MRSLGALLLLLSACLAVSAGPVPTPPDNIQVQENFNISRIYGKWYNLAIGSTCPWLKKIMDRMTVSTLVLGEGATEAEISMTSTRWRKGVCEETSGAYEKTDTDGKFLYHKSKWNITMESYVVHTNYDEYAIFLTKKFSRHHGPTITAKLYGRAPQLRETLLQDFRVVAQGVGIPEDSIFTMADRGECVPGEQEPEPILIPRVRRAVLPQEEEGSGGGQLVTEVTKKEDSCQLGYSAGPCMGMTSRYFYNGTSMACETFQYGGCMGNGNNFVTEKECLQTCRTVAACNLPIVRGPCRAFIQLWAFDAVKGKCVLFPYGGCQGNGNKFYSEKECREYCGVPGDGDEELLRFSN
met

And then MAKSFPVFSLLSFILIHLVLSSVSGPRHWWPPRGIIKVKCPYEKVNLSWYNGTVNPCPGLYQPICGTNFITYDNPCILCVESLKSHGRIRFYHDGKC [Q6IE38] , what is it?
met
